- Protocol Description: Example 18 cynomolgus monkey PK study (SC and IM)
- Type: in vivo, cynomolgus monkeys
- Condition Description: male, cynomolgus monkey, plasma, intramuscular, 20 mg/kg equivalent of EFdA, IM 20 mg/kg equivalent of EFdA; Monkey 2002; 17 days; read-out: Example 18 plasma concentrations

>  <Smiles Structure>
C#C[C@]1(COC(=O)CCCCCCCCC)O[C@@H](n2cnc3c(N)nc(F)nc32)C[C@@H]1OC(=O)CCCCCCCCC

>  <concentration at 17 days [ng/mL]>
0.16

$$$$

====

- Protocol Description: Example 18 cynomolgus monkey PK study (SC and IM)
- Format: in vivo, cynomolgus monkeys
- Condition Description: male, cynomolgus monkey, plasma, intramuscular, 20 mg/kg equivalent of EFdA, IM 20 mg/kg equivalent of EFdA; Monkey 2003; 25 days; read-out: Example 18 plasma concentrations

>  <Compound>
C#C[C@]1(COC(=O)CCCCCCCCC)O[C@@H](n2cnc3c(N)nc(F)nc32)C[C@@H]1OC(=O)CCCCCCCCC [Example 18]

>  <concentration at 25 days>
0.151 ng/mL

$$$$
